These entries and their values trace back to patent US8871208B2.

Molecular target: human 11β-HSD-2 (Homo sapiens, UniProt P80365)
Assay: Human 11β-HSD-2 enzymatic SPA assay
Assay type: biochemical
Details: human enzyme, SPA
Please go through the items and note down their IC50.
One number for each entry, in µM.

{"compound": "CC(C)(Oc1ccc(Cl)cc1)C(=O)N[C@@H]1[C@@H]2C[C@@H]3C[C@H]1C[C@@](CC(N)=O)(C3)C2", "reported value": 21}

Now for a further compound.
Query string: Any idea what its IC50 is? The compound is CC(C)(Oc1cccc(C(F)(F)F)c1)C(=O)NC1C2CC3CC1CC(C(N)=O)(C3)C2 (centres unmarked)
Result string: 11

====

Molecular target: truncated human 11β-HSD-1 enzyme (24-287AA) (Homo sapiens, UniProt P28845)
Construct: truncated human 11β-HSD-1 enzyme (24-287AA); made in house; host or cells: E. coli (lysate)
Sequence (P28845 24-287): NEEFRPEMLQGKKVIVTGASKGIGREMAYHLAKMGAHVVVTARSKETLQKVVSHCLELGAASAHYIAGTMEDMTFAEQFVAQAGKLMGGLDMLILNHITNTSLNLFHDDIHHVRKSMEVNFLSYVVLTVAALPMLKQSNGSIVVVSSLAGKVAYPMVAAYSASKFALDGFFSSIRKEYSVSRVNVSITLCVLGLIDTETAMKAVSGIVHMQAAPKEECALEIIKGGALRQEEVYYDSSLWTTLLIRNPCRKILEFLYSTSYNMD
Assay: Human 11β-HSD-1 enzymatic SPA assay
Assay type: biochemical
Conditions: human enzyme, SPA
# note: boundary value 40 nM maps to 0 (no); IC50 below it maps to 1 (yes)

Some solved cases for reference:
{"compound": "CN(CC1CN(C2CCCCCC2)C(=O)C1(C)C)c1ccccc1F (stereo not shown)", "label class": "0 (no)"}
{"compound": "CC(C(=O)NC1C2CC3CC1CC(NS(C)(=O)=O)(C3)C2)N1CCN(c2ccc(C(F)(F)F)cn2)CC1 (stereo not shown)", "label class": "0 (no)"}

Query string: Is IC50 of CC1(C)C(=O)N(C2C3CC4CC2CC(C#N)(C4)C3)CC1COc1ccc(C#N)cn1 (stereo not shown) strictly below 40 nM?
Result string: 1 (yes)

Query string: Is IC50 of CC(C)(C(=O)NC1C2CC3CC1CC(C(=O)O)(C3)C2)N1CCC(F)C1 (stereo not shown) strictly below 40 nM?
Result string: 0 (no)

Query string: Is IC50 of C[S+]([O-])[C@]12C[C@@H]3C[C@H](C1)[C@@H](NC(=O)C(C)(C)Oc1ccc(F)cc1Cl)[C@@H](C3)C2 (stereo partly shown) strictly below 40 nM?
Result string: 1 (yes)

Query string: Is IC50 of CC(C)(Oc1cccc(C(F)(F)F)c1)C(=O)NC1C2CC3CC1CC(C(N)=O)(C3)C2 (stereo not shown) strictly below 40 nM?
Result string: 0 (no)

Query string: Is IC50 of CC(C(=O)N[C@@H]1[C@@H]2C[C@@H]3C[C@H]1C[C@@](O)(C3)C2)N1C[C@@H](C)O[C@@H](C)C1 (stereo partly shown) strictly below 40 nM?
Result string: 0 (no)

====

Target: UniProt P80365
Sequence (P80365 1-405): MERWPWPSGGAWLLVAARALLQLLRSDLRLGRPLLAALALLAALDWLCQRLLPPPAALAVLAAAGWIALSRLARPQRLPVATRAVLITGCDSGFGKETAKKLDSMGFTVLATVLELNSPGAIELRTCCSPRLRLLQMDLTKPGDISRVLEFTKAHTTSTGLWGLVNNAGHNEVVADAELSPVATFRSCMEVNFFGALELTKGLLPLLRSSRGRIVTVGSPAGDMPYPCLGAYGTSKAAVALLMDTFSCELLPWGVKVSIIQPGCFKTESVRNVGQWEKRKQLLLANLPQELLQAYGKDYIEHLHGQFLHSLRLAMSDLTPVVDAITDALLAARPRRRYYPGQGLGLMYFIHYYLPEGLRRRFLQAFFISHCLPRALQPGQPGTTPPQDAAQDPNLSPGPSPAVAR
Assay: Human 11β-HSD-2 enzymatic SPA assay
Format: biochemical
Details: human enzyme, SPA
Protocol: The ability of test compounds to inhibit human 11β-HSD-1 enzymatic activity in vitro was evaluated in a Scintillation Proximity Assay (SPA). […] The reaction was stopped by adding a non-specific 11β-HSD inhibitor, 18β-glycyrrhetinic acid. […] The reaction plate was shaken at room temperature and the radioactivity bound to SPA beads was then measured on a β-scintillation counter. […] After shaking for 30 minutes, plates were read on a liquid scintillation counter Topcount. […]
measurement name: pIC50
Numbers only, as −log10 of the molar value.

{"compound": "CC1(C(=O)N[C@@H]2[C@@H]3C[C@@H]4C[C@H]2C[C@@](C(N)=O)(C4)C3)CCN(Cc2ccccc2Cl)C1=O (some centres unmarked)", "reported value": 5.20}
{"compound": "CC12CCC(N3CC(COc4ccc(C#N)cn4)C(C)(C)C3=O)(CC1)CC2 (centres unmarked)", "reported value": 5.07}
{"compound": "CC1(C(=O)N[C@@H]2[C@@H]3C[C@@H]4C[C@H]2C[C@@](C(N)=O)(C4)C3)CCN(Cc2cccc(Cl)c2)C1=O (some centres unmarked)", "reported value": 5.00}

Query string: Any idea what its pIC50 is? The compound is CC(C)(Oc1ccc(Cl)cc1)C(=O)NC1C2CC3CC1CC(CS(=O)(=O)NCc1ccc(C(=O)O)cc1)(C3)C2 (centres unmarked)
Result string: 4.74
